Hey, just so you know, these numbers are from patent US4189433A.

# target-of-assay: β2-receptors on the blood vessels (Rattus norvegicus, UniProt P10608)
# Construct: was tested on rats, weighing 230-280 g, under urethane narcosis; from tissue; host or cells: blood vessels in situ of urethane-anaesthetised rats (in vivo)
# Sequence (P10608 whole entry): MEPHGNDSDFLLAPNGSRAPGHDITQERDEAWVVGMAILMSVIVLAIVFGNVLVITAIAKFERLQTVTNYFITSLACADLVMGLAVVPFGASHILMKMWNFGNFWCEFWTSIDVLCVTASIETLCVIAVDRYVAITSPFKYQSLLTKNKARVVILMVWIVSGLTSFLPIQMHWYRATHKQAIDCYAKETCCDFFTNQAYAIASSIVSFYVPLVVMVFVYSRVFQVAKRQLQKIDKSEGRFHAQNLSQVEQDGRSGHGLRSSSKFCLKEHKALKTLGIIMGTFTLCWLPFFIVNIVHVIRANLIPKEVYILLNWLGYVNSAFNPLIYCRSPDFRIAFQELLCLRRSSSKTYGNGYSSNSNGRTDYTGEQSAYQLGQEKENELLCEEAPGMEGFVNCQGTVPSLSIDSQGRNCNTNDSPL
# assay-method-text: β2-sympatholytic action: inhibition of Isoproterenol blood pressure reduction in rats under urethane narcosis
# Type: in vivo
# condition-summary: Propranolol = 1.00; rats under urethane narcosis, intravenous
Record form. Attribute: R.A. (relative activity), β2-sympatholytic action. Fill in for each entry.
Reply: number alone, nothing else.

Supply recorded R.A. (relative activity), β2-sympatholytic action for C#CC(C)(C)NCC(O)COc1cccc2sncc12 (centres unmarked) here.
1.98

Fill in R.A. (relative activity), β2-sympatholytic action for record CCC(C)(CC)NCC(O)COc1cccc2sncc12 (centres unmarked)
0.94

Respond only with R.A. (relative activity), β2-sympatholytic action recorded for CC(C)(C)NCC(O)COc1cccc2sncc12 (centres unmarked)
2.84

Tell me R.A. (relative activity), β2-sympatholytic action reported for CC(C)NCC(O)COc1cccc2sncc12 (centres unmarked)
2.71

Check the records and state R.A. (relative activity), β2-sympatholytic action for CCC(C)(C)NCC(O)COc1cccc2sncc12 (centres unmarked)
1.38

Supply R.A. (relative activity), β2-sympatholytic action value. Item: COCC(C)NCC(O)COc1cccc2sncc12 (centres unmarked)
0.26

# return recorded R.A. (relative activity), β2-sympatholytic action for entry CCC(C)NCC(O)COc1cccc2sncc12 (centres unmarked)
1.08

Give R.A. (relative activity), β2-sympatholytic action for the following compound: CCCC(C)NCC(O)COc1cccc2sncc12 (centres unmarked)
0.42

----------
I'd be grateful if you could share measured selectivity ratio for these entries.
# assay-method-text: in vivo
# condition-summary: mouse
Answer with the value's number alone.

Specify selectivity ratio for CC(C)NCC(O)COc1cccc2sncc12 (centres unmarked) and stop.
32700

Give reported selectivity ratio value for CC(C)(C)NCC(O)COc1cccc2sncc12 (centres unmarked)
94500

----------
# target-of-assay: cardiac β1-receptors (Rattus norvegicus, UniProt P18090)
# Construct: in pithed rats (Sprague-Dawley, Mus rattus; weight 230-280 g); from tissue; host or cells: heart in situ of pithed Sprague-Dawley rats (in vivo)
# Sequence (P18090 whole entry): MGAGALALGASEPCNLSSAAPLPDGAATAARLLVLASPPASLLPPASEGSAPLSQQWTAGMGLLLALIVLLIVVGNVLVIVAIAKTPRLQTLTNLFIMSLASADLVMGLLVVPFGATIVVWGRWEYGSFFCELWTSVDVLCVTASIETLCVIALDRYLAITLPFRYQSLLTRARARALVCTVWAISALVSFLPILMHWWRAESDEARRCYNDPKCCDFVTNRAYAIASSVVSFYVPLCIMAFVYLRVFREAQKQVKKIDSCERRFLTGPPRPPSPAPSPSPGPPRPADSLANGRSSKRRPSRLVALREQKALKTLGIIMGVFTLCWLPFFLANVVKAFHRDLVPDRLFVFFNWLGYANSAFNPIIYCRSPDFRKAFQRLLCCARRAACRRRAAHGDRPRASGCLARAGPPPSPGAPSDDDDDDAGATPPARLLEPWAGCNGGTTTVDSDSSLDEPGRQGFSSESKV
# assay-method-text: β1-sympatholytic action: inhibition of Isoproterenol tachycardia in pithed rats
# Format: in vivo, rat (Sprague-Dawley
# condition-summary: Propranolol = 1.00, intravenous
Kindly return label 1 if reported R.A. (relative activity), β1-sympatholytic action is no lower than 5; return label 0 if it is lower.

Check if R.A. (relative activity), β1-sympatholytic action >= 5 (inclusive). Item: C#CC(C)(C)NCC(O)COc1cccc2sncc12 (centres unmarked)
label 1

API: above_or_equal(metric=R.A. (relative activity), β1-sympatholytic action, cutoff=5) for item COCC(C)NCC(O)COc1cccc2sncc12 (centres unmarked)
label 0

Hi, just wondering whether CCC(C)(C)NCC(O)COc1cccc2sncc12 (centres unmarked) shows R.A. (relative activity), β1-sympatholytic action of 5 or higher.
label 1

Decide: is the reported value of R.A. (relative activity), β1-sympatholytic action for CC(C)NCC(O)COc1cccc2sncc12 (centres unmarked) equal to or greater than 5?
label 1

Decide: R.A. (relative activity), β1-sympatholytic action of CCC(C)NCC(O)COc1cccc2sncc12 (centres unmarked) >= 5?
label 1

Does the molecule CC(C)(C)NCC(O)COc1cccc2sncc12 (centres unmarked) have recorded R.A. (relative activity), β1-sympatholytic action that is 5 or more?
label 1

Check if R.A. (relative activity), β1-sympatholytic action >= 5 (inclusive). Item: CCC(C)(CC)NCC(O)COc1cccc2sncc12 (centres unmarked)
label 0

----------
# target-of-assay: β2-receptors on the blood vessels (Rattus norvegicus)
# Construct: was tested on rats, weighing 230-280 g, under urethane narcosis; from tissue; host or cells: blood vessels in situ of urethane-anaesthetised rats (in vivo)
# assay-method-text: β2-sympatholytic action: inhibition of Isoproterenol blood pressure reduction in rats under urethane narcosis
# Type: in vivo
# condition-summary: cardioselectivity quotient, rats, intravenous
quantity-name: Q (footnote 6; numerically ED 50 β2 / ED 50 β1)
Give only the figure.

Give the reported Q (footnote 6; numerically ED 50 β2 / ED 50 β1) for this compound. C#CC(C)(C)NCC(O)COc1cccc2sncc12 (centres unmarked)
2.50

Output measured Q (footnote 6; numerically ED 50 β2 / ED 50 β1) for this item: CCC(C)(CC)NCC(O)COc1cccc2sncc12 (centres unmarked)
3.69

Find the measured Q (footnote 6; numerically ED 50 β2 / ED 50 β1) of CC(C)(C)NCC(O)COc1cccc2sncc12 (centres unmarked) and report it.
2.47

Quote Q (footnote 6; numerically ED 50 β2 / ED 50 β1) reported for CC(C)NCC(O)COc1cccc2sncc12 (centres unmarked) please.
2.21

Could you please provide reported Q (footnote 6; numerically ED 50 β2 / ED 50 β1) for CCC(C)(C)NCC(O)COc1cccc2sncc12 (centres unmarked) ? Thanks!
4.48

Read off the recorded Q (footnote 6; numerically ED 50 β2 / ED 50 β1) for CCCC(C)NCC(O)COc1cccc2sncc12 (centres unmarked)
10.70

Consider the compound CCC(C)NCC(O)COc1cccc2sncc12 (centres unmarked) and give its recorded Q (footnote 6; numerically ED 50 β2 / ED 50 β1).
6.93

Report measured Q (footnote 6; numerically ED 50 β2 / ED 50 β1); entry is COCC(C)NCC(O)COc1cccc2sncc12 (centres unmarked)
8.90

----------
# Test system: female Swiss mice
# assay-method-text: in vivo
# condition-summary: mouse
The label depends only on Therapeutic range, relative: Satisfied if it is at least 9, Not satisfied if it is smaller.

Could you tell me if the measured Therapeutic range, relative of CC(C)(C)NCC(O)COc1cccc2sncc12 (centres unmarked) reaches 9 or more?
Satisfied

// inclusive: Therapeutic range, relative at least 9? input: CCC(C)NCC(O)COc1cccc2sncc12 (centres unmarked)
Not satisfied

Test whether the compound CC(C)NCC(O)COc1cccc2sncc12 (centres unmarked) records Therapeutic range, relative of 9 or higher.
Not satisfied

Reported Therapeutic range, relative at or above 9? COCC(C)NCC(O)COc1cccc2sncc12 (centres unmarked)
Not satisfied

Hello, I need to know if CCCC(C)NCC(O)COc1cccc2sncc12 (centres unmarked) has measured Therapeutic range, relative not below 9. Thanks!
Not satisfied

Entry CCC(C)(CC)NCC(O)COc1cccc2sncc12 (centres unmarked) : is its Therapeutic range, relative no less than 9?
Not satisfied
